Biological target: Beta Secretase enzyme (BACE) (Homo sapiens, UniProt P56817)
Sequence (P56817 46-501): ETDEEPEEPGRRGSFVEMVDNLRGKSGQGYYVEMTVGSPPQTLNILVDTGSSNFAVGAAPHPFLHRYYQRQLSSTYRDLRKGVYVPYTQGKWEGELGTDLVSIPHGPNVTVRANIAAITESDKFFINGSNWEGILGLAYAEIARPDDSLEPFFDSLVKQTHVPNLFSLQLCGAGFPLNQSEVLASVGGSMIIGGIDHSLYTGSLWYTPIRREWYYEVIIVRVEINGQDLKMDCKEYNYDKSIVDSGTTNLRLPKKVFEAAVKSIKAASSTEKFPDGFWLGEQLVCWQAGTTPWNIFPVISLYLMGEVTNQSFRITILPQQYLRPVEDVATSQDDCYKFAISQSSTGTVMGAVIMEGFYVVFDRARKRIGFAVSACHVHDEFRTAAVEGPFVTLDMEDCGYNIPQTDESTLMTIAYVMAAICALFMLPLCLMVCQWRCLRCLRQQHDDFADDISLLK
Assay: In vitro enzymatic BACE FRET assay
Format: biochemical
Conditions: average IC50; read-out: BACE1 FRET assay IC50
pIC50: −log10 of the molar value.
Classify as follows. Reported pIC50 greater than or equal to 8: Y. Reported pIC50 below: N.

A selection of reference data follows.
>  <Molecule>
Cc1cc(Cl)cnc1C(=O)Nc1ccc2c(c1)[C@@]1(C)N=C(N)C(C)(C)S(=O)(=O)[C@@H]1CCO2 [Example 6a]

>  <Class Assignment>
Y

$$$$
>  <Molecule>
CC1(C)C(N)=N[C@]2(C)c3cc(NC(=O)c4cnc(C(F)(F)F)cn4)ccc3OCC[C@H]2S1(=O)=O [Example 164]

>  <Class Assignment>
N

$$$$
>  <Molecule>
CC1(C)C(N)=N[C@]2(C)c3cc(NC(=O)c4ncc(Cl)cc4Cl)ccc3OCC[C@H]2S1(=O)=O [Example 24]

>  <Class Assignment>
Y

$$$$
>  <Molecule>
Cc1cc(Cl)cnc1C(=O)Nc1ccc2c(c1)[C@@]1(C)N=C(N)C(C)(C)S(=O)(=O)[C@@H]1C[C@H](C)O2 [Example 189]

>  <Class Assignment>
Y

$$$$

Identify whether the reported pIC50 of the following molecule is 8 or greater: Cc1cc(Cl)cnc1C(=O)Nc1ccc2c(c1)[C@]1(C)N=C(N)C(C)(C)S(=O)(=O)[C@H]1CCO2 [Example 17]
N

----------
Biological target: Beta Secretase enzyme (BACE) (Homo sapiens, UniProt P56817)
Assay: In vitro enzymatic BACE FRET assay
Type: biochemical
Conditions: average IC50, in vitro enzymatic BACE FRET assay; read-out: BACE1 FRET assay IC50
Measured Attribute: IC50

Examples with their reported IC50 follow.
>  <Compound>
Cc1cc(C#N)cnc1C(=O)Nc1ccc2c(c1)[C@@]1(C)N=C(N)C(C)(C)S(=O)(=O)[C@@H]1CC(C)(C)O2

>  <System Name>
Beta Secretase enzyme (BACE) (Homo sapiens, UniProt P56817)

>  <Result Value>
8 nM

$$$$
>  <Compound>
COc1cnc(C(=O)Nc2ccc3c(c2)[C@@]2(CF)N=C(N)C(C)(C)S(=O)(=O)[C@H]2C[C@H](C)O3)cn1

>  <System Name>
Beta Secretase enzyme (BACE) (Homo sapiens, UniProt P56817)

>  <Result Value>
13 nM

$$$$
>  <Compound>
C[C@H]1C[C@@H]2[C@](C)(N=C(N)C(C)(C)S2(=O)=O)c2cc(Nc3nccc4nc(OCc5ncco5)cnc34)ccc2O1

>  <System Name>
Beta Secretase enzyme (BACE) (Homo sapiens, UniProt P56817)

>  <Result Value>
4 nM

$$$$
>  <Compound>
Cc1cc(C(F)(F)F)cnc1C(=O)Nc1ccc2c(c1)[C@@]1(CF)N=C(N)C(C)(C)S(=O)(=O)[C@@H]1CCO2

>  <System Name>
Beta Secretase enzyme (BACE) (Homo sapiens, UniProt P56817)

>  <Result Value>
24 nM

$$$$
>  <Compound>
Cc1cc(C#N)cnc1C(=O)Nc1ccc2c(c1)[C@@]1(C)N=C(N)C(C)(C)S(=O)(=O)[C@]1(F)CCO2

>  <System Name>
Beta Secretase enzyme (BACE) (Homo sapiens, UniProt P56817)

>  <Result Value>
5 nM

$$$$

// C[C@H]1C[C@@H]2[C@](C)(N=C(N)C(C)(C)S2(=O)=O)c2cc(NC(=O)c3cnc(OCc4cnn(C)c4)cn3)ccc2O1 : IC50 value = 16 nM

----------
Test system: Abeta 40
Assay: In vivo inhibition of beta-secretase: Abeta 40 reduction in CSF and brain of the rat
Settings: Abeta 40 in CSF of the rat, 10 mpk (unless otherwise noted), after 4 hrs; read-out: % reduction of rat CSF levels at 10 pmk
Attribute: inhibition in vivo at 10 mg/kg
Report the figure in % without appending any unit label.

Examples with their reported inhibition in vivo at 10 mg/kg follow.
>  <Compound>
Cc1cc(C(F)(F)F)cnc1C(=O)Nc1ccc2c(c1)[C@@]1(CF)N=C(N)C(C)(C)S(=O)(=O)[C@@H]1C[C@H](C)O2

>  <inhibition in vivo at 10 mg/kg (%)>
36

$$$$
>  <Compound>
C[C@H]1C[C@@H]2[C@](C)(N=C(N)C(C)(C)S2(=O)=O)c2cc(NC(=O)c3ccc(C(F)(F)F)cn3)ccc2O1

>  <inhibition in vivo at 10 mg/kg (%)>
70

$$$$

// COc1cnc(C(=O)Nc2ccc3c(c2)[C@@]2(C)N=C(N)C(C)(C)S(=O)(=O)[C@@H]2C[C@H](C)O3)cn1 : inhibition in vivo at 10 mg/kg value = 74

----------
Target: Beta Secretase enzyme (BACE) (Homo sapiens, UniProt P56817)
Test: In vitro enzymatic BACE FRET assay
Assay type: biochemical
Conditions: average IC50; read-out: BACE1 FRET assay IC50
Measured Attribute: pIC50
Recall that pIC50 is obtained by taking minus log10 of the concentration measured in molar.

>  <Compound>
C[C@H]1C[C@@H]2[C@](C)(N=C(N)C(C)(C)S2(=O)=O)c2cc(NC(=O)c3cnc(OCC(F)(F)F)cn3)ccc2O1

>  <pIC50>
8.52

$$$$
>  <Compound>
C[C@H]1C[C@@H]2[C@](C)(N=C(N)C(C)(C)S2(=O)=O)c2cc(Nc3nccc4cc(C#N)cnc34)ccc2O1

>  <pIC50>
8.70

$$$$
>  <Compound>
CC1(C)C(N)=N[C@]2(C)c3cc(Nc4ncccc4C#N)ccc3OCC[C@H]2S1(=O)=O

>  <pIC50>
6.94

$$$$

# context switch: different compound, same pIC50
// COc1cnc2c(Nc3ccc4c(c3)[C@@]3(C)N=C(N)C(C)(C)S(=O)(=O)[C@@H]3C[C@H](C)O4)nccc2n1 : pIC50 value = 7.49

----------
Attribute: pIC50
Target: Beta Secretase enzyme (BACE) (Homo sapiens, UniProt P56817)
Test: In vitro enzymatic BACE FRET assay
Assay type: biochemical
Conditions: average IC50, in vitro enzymatic BACE FRET assay; read-out: BACE1 FRET assay IC50
Recall that pIC50 is obtained by taking minus log10 of the concentration measured in molar.

>  <Compound>
COc1cnc(C(=O)Nc2ccc3c(c2)[C@@]2(CF)N=C(N)C(C)(C)S(=O)(=O)[C@@H]2CCO3)c(C)c1

>  <Result Value>
7.51

$$$$
>  <Compound>
CC1(C)C(N)=N[C@]2(C)c3cc(NC(=O)c4ccc(OCC#N)cn4)ccc3OCC[C@H]2S1(=O)=O

>  <Result Value>
7.77

$$$$
>  <Compound>
C[C@H]1C[C@H]2[C@](CF)(N=C(N)C(C)(C)S2(=O)=O)c2cc(Nc3nccc4cc(C#N)cnc34)ccc2O1

>  <Result Value>
8.52

$$$$

Response field pIC50 (Beta Secretase enzyme (BACE) (Homo sapiens, UniProt P56817)) for item CC1(C)C(N)=N[C@]2(CF)c3cc(Nc4nccc5cc(Cl)cnc45)ccc3OCC[C@H]2S1(=O)=O : 7.92

----------
Target: Beta Secretase enzyme (BACE) (Homo sapiens)
Experiment: In vitro enzymatic BACE FRET assay
Format: biochemical
Settings: average IC50; read-out: BACE1 FRET assay IC50
Measured Attribute: IC50 (nM)
Report the figure in nM without appending any unit label.

Examples with their reported IC50 follow.
>  <Compound>
CCc1cc(Cl)cnc1C(=O)Nc1ccc2c(c1)[C@@]1(C)N=C(N)C(C)(C)S(=O)(=O)[C@@H]1CCO2 [Example 31]

>  <Result Value>
15

$$$$
>  <Compound>
Cc1cc(Cl)cnc1C(=O)Nc1ccc2c(c1)[C@@]1(C)N=C(N)C(C)(C)S(=O)(=O)[C@H]1CC(C)(C)O2 [Example 184]

>  <Result Value>
8

$$$$
>  <Compound>
CC1(C)C(N)=N[C@]2(C)c3cc(Nc4ncnc5cc(OCC6CC6)cnc45)ccc3OCC[C@H]2S1(=O)=O [Example 167]

>  <Result Value>
8

$$$$

# context switch: different compound, same IC50
Response field IC50 (Beta Secretase enzyme (BACE) (Homo sapiens)) for item Cc1cc(Cl)cnc1C(=O)Nc1cnc2c(c1)[C@@]1(C)N=C(N)C(C)(C)S(=O)(=O)[C@H]1CCO2 [Example 20] : 19

----------
Target: Beta Secretase enzyme (BACE) (Homo sapiens)
Assay: In vitro enzymatic BACE FRET assay
Assay type: biochemical
Details: average IC50; read-out: BACE1 FRET assay IC50
Attribute: IC50
Report the figure in nM without appending any unit label.

Examples with their reported IC50 follow.
>  <Molecule>
CC#CCOc1cnc(C(=O)Nc2ccc3c(c2)[C@@]2(C)N=C(N)C(C)(C)S(=O)(=O)[C@@H]2CCO3)cn1 [Example 191]

>  <System Name>
Beta Secretase enzyme (BACE) (Homo sapiens)

>  <IC50 / nM>
0.7

$$$$
>  <Molecule>
COc1cnc(C(=O)Nc2ccc3c(c2)[C@@]2(C)N=C(N)C(C)(C)S(=O)(=O)[C@H]2CCC3)cn1 [Example 8]

>  <System Name>
Beta Secretase enzyme (BACE) (Homo sapiens)

>  <IC50 / nM>
172

$$$$
>  <Molecule>
CC1(C)C(N)=N[C@]2(C)c3cc(Nc4nccc5cc(C#N)cnc45)ccc3OCC[C@H]2S1(=O)=O [Example 168]

>  <System Name>
Beta Secretase enzyme (BACE) (Homo sapiens)

>  <IC50 / nM>
2

$$$$
>  <Molecule>
CC1(C)C(N)=N[C@]2(C)c3cc(Nc4ncnc5cc(Cl)cnc45)ccc3OCC[C@H]2S1(=O)=O [Example 176]

>  <System Name>
Beta Secretase enzyme (BACE) (Homo sapiens)

>  <IC50 / nM>
8

$$$$
>  <Molecule>
Cc1cc(C(F)F)cnc1C(=O)Nc1ccc2c(c1)[C@@]1(C)N=C(N)C(C)(C)S(=O)(=O)[C@@H]1CCO2 [Example 163]

>  <System Name>
Beta Secretase enzyme (BACE) (Homo sapiens)

>  <IC50 / nM>
5

$$$$

// C[C@]12N=C(N)C3(CCC3)S(=O)(=O)[C@@H]1CCOc1ncc(Nc3nccc4cc(Cl)cnc34)cc12 [Example 61] : IC50 value = 18

// CC1(C)C(N)=N[C@]2(C)c3cc(NC(=O)c4ccc(Cl)cn4)ccc3OCC[C@H]2S1(=O)=O [Example 186] : IC50 value = 6

Reference for the values: patent US9309263B2
